Numbers sourced from ChEMBL document CHEMBL1133013.

- Protocol Details: Time to maximal concentration (tmax) in rats following a single 5 mg/kg oral cassette gavage dose
- Format: ADME, organism-based
- Parameters: dose 5 mg/kg, route oral
- Condition: rat, in vivo
Please enter label 1 where Tmax is greater than or equal to 0.5 h, and label 0 where it is lower.

Below, 3 molecules whose answers are already recorded.
Molecule: CC(C)[C@@H](NS(=O)(=O)c1ccc(-c2ccc(Br)cc2)cc1)C(=O)NO
Category: label 0

Molecule: O=C(O)C(CCSCc1ccccc1)NS(=O)(=O)c1ccc(-c2ccc(Br)cc2)cc1 (stereo not given)
Category: label 1

Molecule: CC(C)[C@@H](NS(=O)(=O)c1ccc(-c2ccc(Br)cc2)cc1)C(=O)O
Category: label 1

Then this molecule:
Query: Say whether O=C(O)CNS(=O)(=O)c1ccc(-c2ccc(Br)cc2)cc1 shows Tmax of 0.5 h or more.
Reply: label 1

----------
- Protocol Details: Half life (t1/2) in rats following a single 5 mg/kg oral cassette gavage dose
- Assay type: ADME, organism-based
- Set-up: dose 5 mg/kg, route oral
- Condition: rat, in vivo
Label key: Satisfied means half-life under 30 h; Not satisfied means half-life of 30 h or more.

Worked set:
Compound: CC(C)[C@H](NS(=O)(=O)c1ccc(-c2ccc(C(F)(F)F)cc2)cc1)C(=O)O
Category: Not satisfied

Compound: O=C(O)C(CCSCc1ccccc1)NS(=O)(=O)c1ccc(-c2ccc(Br)cc2)cc1 (stereo unspecified)
Category: Satisfied

Query: Regarding O=C(O)C(CCS(=O)(=O)Cc1ccccc1)NS(=O)(=O)c1ccc(-c2ccc(Br)cc2)cc1 (stereo unspecified) , kindly confirm whether its half-life is beneath 30 h.
Reply: Satisfied

Query: Lab log: compare recorded half-life with 30 h; is it strictly lower for CC(C)[C@H](NS(=O)(=O)c1ccc(-c2ccc(Br)cc2)cc1)C(=O)O ?
Reply: Not satisfied

----------
- Measured On: Stromelysin-1 (Homo sapiens)
- Sequence (P08254 whole entry): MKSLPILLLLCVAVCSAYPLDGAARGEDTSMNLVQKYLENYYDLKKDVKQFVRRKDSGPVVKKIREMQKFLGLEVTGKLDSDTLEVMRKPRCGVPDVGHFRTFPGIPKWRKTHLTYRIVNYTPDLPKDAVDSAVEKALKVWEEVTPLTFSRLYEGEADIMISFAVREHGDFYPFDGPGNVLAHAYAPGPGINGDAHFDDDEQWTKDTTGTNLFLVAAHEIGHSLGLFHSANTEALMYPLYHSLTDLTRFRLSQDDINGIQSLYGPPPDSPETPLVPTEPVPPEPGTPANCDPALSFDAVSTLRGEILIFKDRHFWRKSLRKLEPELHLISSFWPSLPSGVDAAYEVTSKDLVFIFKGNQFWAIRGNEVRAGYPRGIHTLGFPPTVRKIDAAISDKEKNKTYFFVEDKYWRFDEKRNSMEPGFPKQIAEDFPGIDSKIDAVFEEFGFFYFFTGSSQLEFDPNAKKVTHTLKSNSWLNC
- Protocol Details: In vitro inhibition of recombinant human matrix metalloprotease-3 (MMP-3)
// reported pIC50 for each item listed
Here pIC50 is given on a logarithmic scale as minus log10 of the concentration in mol/L.

Query: Which value of pIC50 has been reported for C[C@H](NS(=O)(=O)c1ccc(-c2ccc(Br)cc2)cc1)C(=O)O in the records?
Reply: 7.92

Query: pIC50; subject: CC(C)[C@H](NS(=O)(=O)c1ccc(-c2ccc([N+](=O)[O-])cc2)cc1)C(=O)O
Reply: 7.82

Query: Recorded pIC50 for CC(C)[C@H](NS(=O)(=O)c1ccc(-c2ccc(N)cc2)cc1)C(=O)O , please?
Reply: 7.44

Query: Report pIC50 for CC(C)C[C@H](NS(=O)(=O)c1ccc(-c2ccc(Br)cc2)cc1)C(=O)O please.
Reply: 8.15

Query: Request the reported pIC50 associated with CC(C)[C@@H](NS(=O)(=O)c1ccc(-c2ccc(C#N)cc2)cc1)C(=O)O
Reply: 8.30

Query: Recorded pIC50 for CC(C)[C@H](NS(=O)(=O)c1ccc(-c2ccc(Br)cc2F)cc1)C(=O)O , please?
Reply: 7.80

Query: Endpoint output: pIC50 of CC(C)[C@H](NS(=O)(=O)c1ccc(-c2ccc(Br)cc2)cc1)C(=O)NO . Value?
Reply: 6.09

Query: I'd like to know its pIC50. The molecule in question is CC(C)[C@H](NS(=O)(=O)c1ccc(-c2ccc(C=O)cc2)cc1)C(=O)O
Reply: 8.10

Query: Consider the molecule CC(C)[C@H](NS(=O)(=O)c1ccc(-c2ccc(C#N)cc2)cc1)C(=O)O and give its measured pIC50.
Reply: 8.22

Query: // returns reported pIC50 for input Cc1ccc(-c2ccc(S(=O)(=O)N[C@H](C(=O)O)C(C)C)cc2)cc1
Reply: 8.52

----------
A short record of IC50 observed with UniProtKB P14780 follows.
Sequence (P14780 whole entry): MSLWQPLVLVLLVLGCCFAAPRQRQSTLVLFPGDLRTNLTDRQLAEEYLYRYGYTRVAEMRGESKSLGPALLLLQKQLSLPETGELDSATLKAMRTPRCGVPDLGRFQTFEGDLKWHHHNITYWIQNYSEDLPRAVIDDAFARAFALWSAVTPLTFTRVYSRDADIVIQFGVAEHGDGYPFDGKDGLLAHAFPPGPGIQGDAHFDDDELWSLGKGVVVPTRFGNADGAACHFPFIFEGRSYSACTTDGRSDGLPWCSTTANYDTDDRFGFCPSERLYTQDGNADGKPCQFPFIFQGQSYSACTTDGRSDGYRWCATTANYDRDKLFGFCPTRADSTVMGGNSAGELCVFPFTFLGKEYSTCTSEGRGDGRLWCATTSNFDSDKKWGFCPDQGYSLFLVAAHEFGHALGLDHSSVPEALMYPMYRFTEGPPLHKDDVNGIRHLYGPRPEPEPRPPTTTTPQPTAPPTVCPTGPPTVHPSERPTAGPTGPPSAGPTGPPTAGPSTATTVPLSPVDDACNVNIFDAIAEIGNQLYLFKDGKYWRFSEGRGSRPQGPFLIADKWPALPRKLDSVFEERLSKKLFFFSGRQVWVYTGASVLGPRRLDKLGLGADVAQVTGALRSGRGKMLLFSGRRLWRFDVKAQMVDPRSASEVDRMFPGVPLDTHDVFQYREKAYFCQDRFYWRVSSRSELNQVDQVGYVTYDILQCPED
# unit: µM | format: bare number

# example entries with known answers
Structure Smiles String: CC(C)[C@H](NS(=O)(=O)c1ccc(-c2ccc(F)cc2)cc1)C(=O)O
Measured On: UniProtKB P14780
Obs Value: 64
//
Structure Smiles String: C[C@H](NS(=O)(=O)c1ccc(-c2ccc(Br)cc2)cc1)C(=O)O
Measured On: UniProtKB P14780
Obs Value: 9.5
//
Structure Smiles String: CC(C)[C@H](NS(=O)(=O)c1ccc(-c2cccc(F)c2)cc1)C(=O)O
Measured On: UniProtKB P14780
Obs Value: 65

Query: Entry under review: CC(C)[C@@H](NS(=O)(=O)c1ccc(-c2ccc(C#N)cc2)cc1)C(=O)O . Reported IC50?
Reply: 3.8

Query: What value of measured IC50 is listed for O=C(O)[C@H](Cc1ccccc1)NS(=O)(=O)c1ccc(-c2ccc(Br)cc2)cc1 ?
Reply: 27

Query: Form field: reported IC50 of O=C(CCc1ccccc1)NCCC[C@H](NS(=O)(=O)c1ccc(-c2ccc(Br)cc2)cc1)C(=O)O
Reply: 7.7

Query: Would you mind telling me what IC50 value was observed for CC(C)[C@H](NS(=O)(=O)c1ccc(-c2ccc(Cl)cc2)cc1)C(=O)O ?
Reply: 16

Query: Looking for the measured IC50 of CC(C)[C@H](NS(=O)(=O)c1ccc(-c2ccc([N+](=O)[O-])cc2)cc1)C(=O)O , can you help?
Reply: 38

Query: Record request: IC50 value, item CC(C)[C@@H](NS(=O)(=O)c1ccc(-c2ccc(Br)cc2)cc1)C(=O)NO
Reply: 0.018

----------
- Measured On: Interstitial collagenase (Homo sapiens, UniProt P03956)
- Sequence (P03956 whole entry): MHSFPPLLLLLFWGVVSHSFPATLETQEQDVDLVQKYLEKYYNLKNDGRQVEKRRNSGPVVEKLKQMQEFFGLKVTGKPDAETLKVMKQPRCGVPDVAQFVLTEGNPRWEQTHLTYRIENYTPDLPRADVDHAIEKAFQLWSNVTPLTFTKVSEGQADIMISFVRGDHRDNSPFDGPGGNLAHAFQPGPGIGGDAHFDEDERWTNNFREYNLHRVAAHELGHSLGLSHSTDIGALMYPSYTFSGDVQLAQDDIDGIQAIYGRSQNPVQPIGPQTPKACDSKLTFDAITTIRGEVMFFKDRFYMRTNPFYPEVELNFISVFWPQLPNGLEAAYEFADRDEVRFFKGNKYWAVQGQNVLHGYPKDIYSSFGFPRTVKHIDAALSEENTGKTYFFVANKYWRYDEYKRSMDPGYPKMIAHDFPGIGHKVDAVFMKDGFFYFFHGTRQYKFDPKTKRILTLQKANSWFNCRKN
- Protocol Details: In vitro inhibition of human recombinant matrix metalloprotease-1 (MMP-1)
Measured Quantity: IC50 (µM)
Answer format: numeric, µM implied, no suffix.

Example entries begin here.
Molecule: O=C(O)C(CCSCc1ccccc1)NS(=O)(=O)c1ccc(-c2ccc(Br)cc2)cc1 (centres undefined)
Measured Quantity: IC50
Unit String: µM
Obs Value: 56
//
Molecule: COc1ccc(-c2ccc(S(=O)(=O)N[C@H](C(=O)O)C(C)C)cc2)cc1
Measured Quantity: IC50
Unit String: µM
Obs Value: 1.5
//
Molecule: O=C(O)C(CCS(=O)(=O)Cc1ccccc1)NS(=O)(=O)c1ccc(-c2ccc(Br)cc2)cc1 (centres undefined)
Measured Quantity: IC50
Unit String: µM
Obs Value: 27

Query: # get_value(readout='IC50', item= CC(C)[C@H](NS(=O)(=O)c1ccc(-c2ccc(C=O)cc2)cc1)C(=O)O )
Reply: 3.2

----------
- Protocol Details: Pharmacokinetic parameters in rats following a single 5 mg/kg oral cassette gavage dose
- Format: ADME, organism-based
- Parameters: dose 5 mg/kg, route oral
- Condition: rat, in vivo, read-out: AUC 0-infinity
AUC under 400 µg·h/mL gets TRUE, anything at or over 400 µg·h/mL gets FALSE.

Worked examples, 2 molecules total:
Structure Smiles String: COc1ccc(-c2ccc(S(=O)(=O)N[C@H](C(=O)O)C(C)C)cc2)cc1
Category: TRUE
//
Structure Smiles String: CC(C)C[C@H](NS(=O)(=O)c1ccc(-c2ccc(Br)cc2)cc1)C(=O)O
Category: FALSE

Query: Is 400 µg·h/mL strictly greater than the molecule's reported AUC? molecule: Cc1ccc(-c2ccc(S(=O)(=O)N[C@H](C(=O)O)C(C)C)cc2)cc1
Reply: TRUE

----------
- Protocol Details: Concentration in rat plasma 24 hours after single 5 mg/kg oral cassette gavage dose
- Assay type: ADME, organism-based
- Design: dose 5 mg/kg, route oral
- Condition: read-out: C24
The following compounds are shown together with reported concentration at 24 h values.

Query: Any idea what its concentration at 24 h is? The compound is Cc1ccc(-c2ccc(S(=O)(=O)N[C@H](C(=O)O)C(C)C)cc2)cc1
Reply: < 10 ng/mL

Query: Form field: reported concentration at 24 h of COc1ccc(-c2ccc(S(=O)(=O)N[C@H](C(=O)O)C(C)C)cc2)cc1
Reply: < 10 ng/mL

Query: For CC(C)[C@H](NS(=O)(=O)c1ccc(-c2ccc(C(F)(F)F)cc2)cc1)C(=O)O , what is its reported concentration at 24 h?
Reply: 11700 ng/mL

----------
Readings of log10 half-life for the listed molecules
- Protocol Details: Half life (t1/2) in rats following a single 5 mg/kg oral cassette gavage dose
- Assay type: ADME, organism-based
- Design: dose 5 mg/kg, route oral
- Condition: rat, in vivo
The base-10 logarithm of half-life, taken with half-life in h, is what appears here.

Structure Smiles String: COc1ccc(-c2ccc(S(=O)(=O)N[C@H](C(=O)O)C(C)C)cc2)cc1
log10 half-life: -0.45

Query: So what's the measured log10 half-life for this one? CC(C)[C@H](NS(=O)(=O)c1ccc(-c2ccc(Cl)cc2)cc1)C(=O)O
Reply: 1.53

Query: I am curious: what log10 half-life value has been reported for CC(C)[C@H](NS(=O)(=O)c1ccc(-c2ccc(C#N)cc2)cc1)C(=O)O ?
Reply: 1.10

Query: Look up log10 half-life for this molecule: CC(C)[C@H](NS(=O)(=O)c1ccc(-c2ccccc2)cc1)C(=O)O
Reply: 0.53

Query: // returns reported log10 half-life for input CC(C)[C@@H](NS(=O)(=O)c1ccc(-c2ccc(C#N)cc2)cc1)C(=O)NO
Reply: -0.10

Query: Given the molecule CC(C)[C@@H](NS(=O)(=O)c1ccc(-c2ccc(Br)cc2)cc1)C(=O)NO , what is its reported log10 half-life?
Reply: 0.83

Query: Give its log10 half-life value. Item: CC(C)C[C@H](NS(=O)(=O)c1ccc(-c2ccc(Br)cc2)cc1)C(=O)O
Reply: 1.62
